Reported viability at 250 µM by item:
Experiment: Cytoprotective activity against amyloid beta-induced oxidative stress in mouse Neuro2a cells assessed as cell viability at 250 uM after 6 hrs by MTT assay
Assay type: functional
Conditions: N2a, read-out: Activity
measure: viability at 250 µM

INSERT INTO results (molecule, measure, result) VALUES
  ('O=C(/C=C/c1ccc(O)c(O)c1)c1ccc(O)c(O)c1', 'viability at 250 µM', '40%'),
  ('O=C(/C=C/c1ccccc1)c1ccccc1O [2''-HYDROXYCHALCONE]', 'viability at 250 µM', '1.7%'),
  ('O=C(/C=C/c1ccc(O)c(O)c1)c1c(O)cccc1O', 'viability at 250 µM', '28%'),
  ('O=C(/C=C/c1ccc(O)c(O)c1O)c1ccc(O)c(O)c1', 'viability at 250 µM', '51%'),
  ('O=C(/C=C/c1ccc(O)c(O)c1)c1ccccc1', 'viability at 250 µM', '4.3%'),
  ('O=C(/C=C/c1ccc(O)c(O)c1)c1cc(O)ccc1O', 'viability at 250 µM', '46%'),
  ('O=C(/C=C/c1ccccc1)c1ccc(O)cc1 [4''-HYDROXYCHALCONE]', 'viability at 250 µM', '1.4%'),
  ('O=C(/C=C/c1cccc(O)c1)c1ccc(O)cc1O', 'viability at 250 µM', '6.9%'),
  ('O=C(/C=C/c1cc(O)ccc1O)c1ccc(O)c(O)c1', 'viability at 250 µM', '70%'),
  ('O=C(/C=C/c1ccc(O)c(O)c1O)c1ccc(O)c(O)c1O', 'viability at 250 µM', '91%'),
  ('O=C(/C=C/c1ccc(O)cc1)c1ccccc1 [4-HYDROXYCHALCONE]', 'viability at 250 µM', '0%'),
  ('O=C(/C=C/c1ccc(O)c(O)c1)c1cccc(O)c1', 'viability at 250 µM', '35%'),
  ('O=C(/C=C/c1ccc(O)c(O)c1)c1ccc(O)cc1O', 'viability at 250 µM', '71%'),
  ('O=C(/C=C/c1ccc(O)c(O)c1)c1ccc(O)c(O)c1O', 'viability at 250 µM', '118%');

Entry source: ChEMBL document CHEMBL3751756
